Consider the following compounds and their measured melting point readings.

>>> df
                                   compound  quantity_name         result
0  COC(=O)c1c(C)nc(C)c2c1C(=O)C=C(Nc1ccc(Cc3ccc(NC4=CC(=O)c5c(C(=O)OC)c(C)nc(C)c5C4=O)cc3)cc1)C2=O [Compound 11]  melting point  199 to 200 °C
1  COC(=O)c1c(C)nc(C)c2c1C(=O)C=C(Nc1ccc(Cc3ccc(N)cc3)cc1)C2=O [Compound 6]  melting point  149 to 150 °C
2  COC(=O)c1c(C)ncc2c1C(=O)C=C(Nc1ccc(Cc3ccc(NC4=CC(=O)c5cnc(C)c(C(=O)OC)c5C4=O)cc3)cc1)C2=O [Compound 15]  melting point  191 to 192 °C

Task: Suppose we examine the compound COC(=O)c1c(C)ncc2c1C(=O)C=C(Nc1ccc(Cc3ccc(N)cc3)cc1)C2=O [Compound 8] ; what melting point value has been reported?
Output: 83 to 84 °C

###

# Tested on: MDA-MB-231 and B16-F10 tumor cells (versus MEF fibroblasts)
# Protocol Details: Cell growth inhibition assay, mean over the two tumor cell lines and selectivity versus fibroblasts
# Assay type: cell-based
# Setup Conditions: mean of the IC50 values of the two tumor cell lines MDA-MB 231 and B16-F10; 72 h
Consider the following compounds and their measured IC50 readings.
Kindly provide the numeric value in µM only, without the unit symbol.

Guide cases for IC50, answers given:
>>> df
                                smiles_code                             tested_system  unit_abbreviation  numeric_result
0  CC(=O)c1c(C)ncc2c1C(=O)C=C(Nc1ccc(Cc3ccc(NC4=CC(=O)c5c(cnc(C)c5C(C)=O)C4=O)cc3)cc1)C2=O  MDA-MB-231 and B16-F10 tumor cells (versus MEF fibroblasts)                 µM            6.91
1  CC(=O)c1c(C)nc(C)c2c1C(=O)C=C(Nc1ccc(Cc3ccc(NC4=CC(=O)c5c(C(C)=O)c(C)nc(C)c5C4=O)cc3)cc1)C2=O  MDA-MB-231 and B16-F10 tumor cells (versus MEF fibroblasts)                 µM            52.1
2  CC(=O)c1c(C)nc(C)c2c1C(=O)C=C(Nc1ccc(Cc3ccc(N)cc3)cc1)C2=O  MDA-MB-231 and B16-F10 tumor cells (versus MEF fibroblasts)                 µM            13.3

Task: Suppose we examine the compound `CC(=O)c1c(C)ncc2c1C(=O)C=C(Nc1ccc(Cc3ccc(N)cc3)cc1)C2=O` ; what IC50 value has been reported?
Output: 1.18
